Below, each entry is listed with its recorded EC50.
# target_system: T1, EBOV GPcl (Ebola virus (EBOV), UniProt Q05320 33-200; Q05320 502-632)
# T1 chain 1: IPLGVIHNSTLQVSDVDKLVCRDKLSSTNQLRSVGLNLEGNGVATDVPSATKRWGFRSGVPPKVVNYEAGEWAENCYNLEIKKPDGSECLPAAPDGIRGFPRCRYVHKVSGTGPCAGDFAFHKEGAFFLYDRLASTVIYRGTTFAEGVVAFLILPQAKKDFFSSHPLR
# T1 chain 2: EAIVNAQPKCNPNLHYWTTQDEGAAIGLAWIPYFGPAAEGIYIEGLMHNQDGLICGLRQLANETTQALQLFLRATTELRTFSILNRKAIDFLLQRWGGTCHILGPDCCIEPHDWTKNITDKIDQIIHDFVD
# assay_procedure: ELISA

[
  {
    "binder": "FVM20 (antibody, V domains shown) VH: EVQLVESGAEVKRPGESLTISCKTSGYSFTGSWISWVRQMPGKGLEWLGSIYPGDSETKYNPSFQGHVTISADKSVTTTYLKWSSLKASDTATYYCVKGSETWGQGVLVTVSS VL: NFMLTQSASLSASPGASASLTCTFSGGINVAGYHIFWYQQNPGSPPRYLLRYKSDSEKDQGSGVPSRFSGSKDASANTGILRISGLQSEDEADYYCAIGHSSGWIFGGGTRLTVL",
    "EC50": "> 10000 ng/mL"
  },
  {
    "binder": "FVM04 (antibody, V domains shown) VH: EVQLVQSGGGLVQPGGSMRLSCEASGLSLSDYFMHWVRQAQGKGLEWIGLIQTKAFTYKTEYPAAVKGRFTISRDDSKNTLYLQMSSLKPEDTALYYCIAVTPDFYYWGQGVLVTVSS VL: DVVMTQSPSFLSASVGDRVTITCRASQDITINLNWFQHKPGKAPKRLIYVASRLERGVPSRFSGSGSGTEFTLTISSLQPEDFATYYCQQYNNYPLTFGPGTKLDIKR",
    "EC50": "8 ng/mL"
  },
  {
    "binder": "FVM02P (antibody, V domains shown) VH: EVQLVESGGGLVQPGGSLRLSCAASGFTGFTFSDYAFYWVRQAPGKGLEWVGFIRGKAYGGTADYAASVKGRFTISRDNSKNTAYLQMSSLKTEDSAVYYCTSQGVTVATPYHWGQGVLVTVSS VL: DIVLTQSPLSLPVTPGEPASISCRSSQSLLHSGGKTYLYWYLQKPGQSPQLLIHEVSNRASGVPDRFSGSGSGTDFTLKISRVEAEDVGVYYCMQGIQLPLTFGGGTKVEIKR",
    "EC50": "5 ng/mL"
  },
  {
    "binder": "FVM13 (antibody, V domains shown) VH: EVQLVQSGAEVKRPGESLKISCKTSGYTFTSSWISWVRQMPGKGLEWLGSIYPGDSDTRYNPSFQGHVTISADTSIITTHLQWSSLKASDTATYYCVKGSETWGQGVLVTVSS VL: KPMLTQPTSLSASPGASASLTCTFSGGINVAGYNILWYQQKAGSPPRYLLRYKSDSTKDQGSGVPSRFSGSKDASANTGILRISGLQSEDEADYYCAIGHSSGWIFGGGTRLTVL",
    "EC50": "> 10000 ng/mL"
  }
]
